biological target: Human Platelet IP Receptor (Homo sapiens, UniProt P43119); construct: 250 ml Platelet Rich Plasma was transferred into 250 ml centrifuge tubes and spun at 6000 g; from tissue; host or cells: membranes prepared from platelets (platelet rich plasma); assay: In vitro Human Platelet IP Receptor Radioligand Binding Assay; conditions: human platelet membranes, radioligand competition, 25 °C for 60 min; read-out: Affinity towards the Human Platelet IP Receptor (pKi) (converted)
Sequence (P43119 whole entry): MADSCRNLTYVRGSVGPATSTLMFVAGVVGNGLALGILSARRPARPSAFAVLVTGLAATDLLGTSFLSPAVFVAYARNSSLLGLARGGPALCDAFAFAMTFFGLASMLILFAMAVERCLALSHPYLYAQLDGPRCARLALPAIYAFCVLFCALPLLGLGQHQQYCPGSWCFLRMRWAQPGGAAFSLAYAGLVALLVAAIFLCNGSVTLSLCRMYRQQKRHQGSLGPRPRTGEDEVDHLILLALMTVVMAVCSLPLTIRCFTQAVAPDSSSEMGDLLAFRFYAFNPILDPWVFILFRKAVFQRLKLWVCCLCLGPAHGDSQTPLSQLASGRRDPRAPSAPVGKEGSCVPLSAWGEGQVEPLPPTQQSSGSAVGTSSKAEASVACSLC
// reported Ki for each item listed
State the answer as a number, implicitly in nM.

smiles record | quantity measured | display unit | numeric readout
CC(C)Oc1ccc(C(=O)CCc2ccc(NC3=NCCN3)cc2)cc1 | Ki | nM | 0.437
O=C(CCc1ccc(NC2=NCCN2)cc1)c1ccc(Cl)cc1Cl | Ki | nM | 0.282
O=C(CCCc1ccc(NC2=NCCN2)cc1)c1ccc(F)cc1 | Ki | nM | 3.09
O=C(CCc1ccc(NC2=NCCN2)cc1)c1cc(F)cc(F)c1 | Ki | nM | 0.741
CC(=O)N1CCN(c2ccc(C(=O)CCc3ccc(NC4=NCCN4)cc3)cc2)CC1 | Ki | nM | 6.31

Exercise: Which Ki is reported with Human Platelet IP Receptor (Homo sapiens, UniProt P43119) for this entry: CCCOC(=O)N1CCN(c2ccc(C(=O)CCc3ccc(NC4=NCCN4)cc3)cc2)CC1 ?
Key: 58.9

Exercise: Reported Ki for Human Platelet IP Receptor (Homo sapiens, UniProt P43119), given O=C(CCc1ccc(NC2=NCCN2)cc1)c1ccc(OCc2ccccc2)cc1 ?
Key: 11.2

Exercise: Lab note: need Ki for O=C(CCc1ccc(NC2=NCCN2)cc1)c1ccc(Cl)c(Cl)c1 on Human Platelet IP Receptor (Homo sapiens, UniProt P43119), anyone have it?
Key: 9.55

Exercise: So what Ki did O=C(CCc1ccc(NC2=NCCN2)cc1)c1ccc(Oc2ccccc2)cc1 get with Human Platelet IP Receptor (Homo sapiens, UniProt P43119)?
Key: 20

Exercise: Lookup: Ki / Human Platelet IP Receptor (Homo sapiens, UniProt P43119) / O=C(CCc1ccc(NC2=NCCN2)cc1)c1ccc(F)cc1
Key: 0.316
